Molecular target: T1, ITGA2 protein on the surface of human tumor cells (HuCCT1, A431) (human, UniProt P17301 30-1181)
T1 construct: whole, on cells; Endogenously expressed on the cell lines; the cell line of each entry is named under assay or readout; also called Integrin alpha-2; ITGA2-positive HuCCT1 cells
T1 sequence (looked up): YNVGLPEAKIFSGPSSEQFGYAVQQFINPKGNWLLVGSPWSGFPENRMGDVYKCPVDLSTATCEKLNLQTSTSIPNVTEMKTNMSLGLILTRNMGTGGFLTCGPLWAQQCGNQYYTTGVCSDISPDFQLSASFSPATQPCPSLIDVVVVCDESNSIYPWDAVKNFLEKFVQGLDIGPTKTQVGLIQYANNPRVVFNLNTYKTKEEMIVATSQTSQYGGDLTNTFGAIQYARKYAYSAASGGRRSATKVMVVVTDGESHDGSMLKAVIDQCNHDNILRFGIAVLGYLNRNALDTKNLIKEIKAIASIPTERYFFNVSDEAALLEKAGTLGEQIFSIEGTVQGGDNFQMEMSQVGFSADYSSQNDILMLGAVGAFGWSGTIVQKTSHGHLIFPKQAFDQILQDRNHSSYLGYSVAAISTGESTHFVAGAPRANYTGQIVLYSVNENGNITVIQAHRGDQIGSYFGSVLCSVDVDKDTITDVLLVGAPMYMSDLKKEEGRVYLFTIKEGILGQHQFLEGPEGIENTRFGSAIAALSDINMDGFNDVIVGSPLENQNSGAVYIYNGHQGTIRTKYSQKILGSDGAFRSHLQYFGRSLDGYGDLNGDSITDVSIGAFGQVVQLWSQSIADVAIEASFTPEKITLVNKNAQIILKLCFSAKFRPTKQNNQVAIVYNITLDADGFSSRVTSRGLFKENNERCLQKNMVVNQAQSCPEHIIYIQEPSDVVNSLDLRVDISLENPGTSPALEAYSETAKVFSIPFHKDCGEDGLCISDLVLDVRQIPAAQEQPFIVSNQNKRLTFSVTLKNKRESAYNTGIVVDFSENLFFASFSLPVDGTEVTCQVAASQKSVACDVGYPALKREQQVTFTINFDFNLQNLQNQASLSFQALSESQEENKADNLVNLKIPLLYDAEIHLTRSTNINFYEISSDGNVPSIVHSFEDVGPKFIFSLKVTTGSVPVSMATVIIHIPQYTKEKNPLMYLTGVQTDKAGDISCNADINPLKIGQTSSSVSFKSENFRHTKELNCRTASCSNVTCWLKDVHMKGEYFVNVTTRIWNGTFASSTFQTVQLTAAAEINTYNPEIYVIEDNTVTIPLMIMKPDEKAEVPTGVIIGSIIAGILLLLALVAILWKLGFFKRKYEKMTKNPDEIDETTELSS
Test: flow cytometry on HuCCT1 cells, goat anti-human IgG (H+L) secondary antibody
Could you please report measured EC50 for the items listed next?
Answers are plain numbers, in nM.

binder	EC50 [nM]
Humanized antibody FS002-C417 (antibody, human IgG1, kappa, V domains shown, IgG1 heavy chain, kappa light chain) VH: EVQLVESGGVVVQPGGSLRLSCAASGFTFDDYTMHWVRQAPGKGLEWVSLISWDGGSTYYADSVKGRFTISRDNAKNTLYLQMNSLRAEDTAVYYCARDTGYAMDVWGQGTMVTVSS VL: NIQMTQSPSSLSASVGDRVTITCRASQSISSYLNWYQQKPGKAPKLLIYAASSLQSGVPSRFSGSGSGTDFTLTISSLQPEDFASYYCQQSYSSWAFGQGTKVEIKR	68.4

Provide EC50 for all items below, preserving their order.
1. Humanized antibody FS002-C11 (antibody, human IgG1, kappa, V domains shown, IgG1 heavy chain, kappa light chain) VH: RLQLQESGPRLVKPSETLSLTCSVSGGSISSRNHYWAWIRQPPGKGLEWIGYIYYSGSTYYNPSLKSRVTISVDTSKNQFSLKLSSVTAADTAVYYCARVGLLLRDFDYWGQGTLVTVSS VL: DIQMIQSPSSVSASVGDRVTITCRASQGISNSLAWYQHKPGTTPKLLIYAASSLQGGVPSRFSGSSSETDFTLTISSLQPEDFATYYCQQANSFPITFGQGTRLDIKR
2. Humanized antibody FS002-A10 (antibody, human IgG1, kappa, V domains shown, IgG1 heavy chain, kappa light chain) VH: QVQLQQSGPGLVKPSQTLSLTCAISGDSVSSDSAAWNWIRQSPSRGLEWLGRTYYRSKWYNDYAVSVKSRITINPDTSKNQFSLQLNSVTSDDTAVYYCARGSWAAPWLWGQGTLVTVSS VL: NIQLTQSPPFLSASVGDRVTITCRASQDISSFLAWYQQKPGKAPNLLIHAATTLQSGVPSRFSGSGSGTEFTLTISSLRPEDFATYYCQQLHTYPITFGQGTRLEIKR
3. Humanized antibody FS002-A36 (antibody, human IgG1, kappa, V domains shown, IgG1 heavy chain, kappa light chain) VH: QVQLQESGPGLVKPSQTLSLTCTVSGGSISSGGYYWSWIRQHPGKGLEWIGYIYYSGSTYYNPSLKSRVTISVDTSKNQFSLKLSSVTAADTAVYYCARVRLLGGGFDIWGQGTTVTVSS VL: EIVLTQSPATLSLSPGERATLSCRASQSVSTYLAWYQQKPGQAPRLLIYDTSIRATGIPARFSGSGSGTDFTLTISSLEPEDFAVYYCQQRSNWPLTFGGGTKVEIKR

Response:
[0.747, 1.13, 0.793]
